# procedure-details: P. aeruginosa biofilm formation inhibitors, primary screen, strain PAO1, LB-PBS medium, absorbance 600 nm (AID 1176); note: test concentration not given here
# condition: P. aeruginosa PAO1 growth/biofilm, A600, 12 h; higher = more signal
The source made the active and inactive calls. The rule behind the calls is not given here.
Measured z-score, listed per entry for reference.

CCC(CC)C(O)C1C=CC2C(=O)NC(=O)C2N1Nc1ccc(Cl)cc1Cl (centres undefined)
1.26 (inactive)
CC(CO)N1C(=O)[C@@H]2C3C(=O)OCCC/C=C\[C@H]3OC23C=CCN(C(C)(C)C)C(=O)[C@@H]13 (some centres undefined)
0.727 (inactive)
COC(=O)[C@H](Cc1ccccc1)N1CC2=C[C@@H](C3CC3)n3c(=O)n(C)c(=O)n3[C@H]2[C@@H]1[C@@H](O)Cc1ccccc1
0.0937 (inactive)

**Query** Can you share its z-score? I mean this compound: C=CCNC(=O)[C@@H]1[C@H]2C(=O)O[C@H](c3ccccc3)[C@H](c3ccccc3)N2[C@H](c2ccccc2OCCO)[C@@]12C(=O)N(C(=O)OCCOC)c1ccccc12
**Result** 2.26 (inactive)

====

# tgt: Follistatin-related protein 3 (Homo sapiens) (UniProt O95633)
# Sequence (O95633 whole entry, looked up): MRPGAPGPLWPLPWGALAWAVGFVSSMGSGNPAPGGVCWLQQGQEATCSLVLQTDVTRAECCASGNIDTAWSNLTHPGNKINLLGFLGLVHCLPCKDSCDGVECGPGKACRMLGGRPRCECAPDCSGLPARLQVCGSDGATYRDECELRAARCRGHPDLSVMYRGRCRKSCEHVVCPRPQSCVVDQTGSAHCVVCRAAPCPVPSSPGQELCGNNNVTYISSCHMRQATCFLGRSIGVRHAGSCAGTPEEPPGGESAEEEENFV
# procedure-details: FSTL3 binders on small-molecule microarrays, primary screen, biochemical, small-molecule microarray, 635 nm fluorescence (AID 1105);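 note: score merges emission near 667 nm and signal to noise per printed spot across three slides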
# condition: FSTL3 binding, higher = more signal
test-readout: composite z-score
# output: bare number, no unit

COCCOC(=O)N1C(=O)[C@@]2(c3cc(C#CCC(C(=O)OC)C(=O)OC)ccc31)[C@H](C(=O)N1CCN(c3ncccn3)CC1)[C@H]1C(=O)O[C@H](c3ccccc3)[C@H](c3ccccc3)N1[C@@H]2c1ccccc1OCCO
1.38
C=CCN1C(=O)[C@]2(O[C@H](CCn3cc([C@H](O)c4ccccc4)nn3)[C@@H]([Si](C)(C)c3ccc(OC)cc3)[C@@H]2C)c2cc(N3CCC3=O)ccc21
0.306
CCC[C@@H]1C[C@@]1(CCC)[C@@H](NC(=O)c1ccccc1)c1cccc(Cl)c1
0.644

**Query** Return reported composite z-score; argument: C=CC[C@@]12N=C(c3ccc(OCCCO)cc3)O[C@@H]1c1ccccc1N(C)C2=O
**Result** 0.964

**Query** Endpoint output: composite z-score of COC(=O)[C@@]1(Cc2ccc(OC)cc2)[C@H]2c3cc(C(=O)N4CCCC4)n(Cc4ccc(C)c(F)c4F)c3C[C@H]2CN1C(=O)c1ccccc1 . Value?
**Result** 1.18

**Query** I would be grateful if you could share the reported composite z-score for COc1ccc(CCNC(=O)[C@@]2(Sc3ccc(C)cc3)CC(=O)N(C3Cc4ccccc4C3)[C@@H]2c2ccc(CO)cc2I)cc1 .
**Result** -0.856

**Query** # composite z-score lookup, item COc1ccc(C(O)C2C=CC3C(=O)N(Cc4ccccc4)C(=O)C3N2n2cnnc2)cc1OCc1ccccc1 (configuration not stated)
**Result** 0.308

====

# procedure-details: binders of probe aFGF10 on microarray, primary screen, stem cell growth factor project, biochemical, small-molecule microarray, fluorescence 635/667 (AID 1071);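 note: score merges 667 nm spot intensity and signal to noise from triplicate slides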
# condition: higher = more signal
A collection of compounds and their measured composite z-score
// keep it numeric: no unit symbol after the value

Example entries and their recorded answers appear below.
CNS(=O)(=O)c1ccc(C)cc1
0.248
CC(=O)NCCCC[C@@H]1NC(=O)[C@@H]2C[C@H](C(=O)NCCCCCNC(=O)CS)[C@H](c3cccc(OCCO)c3)N2C1=O
0.37
C=CCOC(=O)[C@H]1[C@@H]2C(=O)O[C@@H](c3ccccc3)[C@@H](c3ccccc3)N2[C@@H](c2ccc(OCCOC(=O)[C@@H]3C[C@@H]4C(=O)N[C@@H](CC(C)C)C(=O)N4[C@@H]3c3ccc(O)cc3)cc2)[C@]12C(=O)Nc1ccccc12
0.649
O=C1C[C@@](C(=O)NC2CC2)(c2ccc([N+](=O)[O-])cc2)[C@@H](c2ccc(CO)cc2I)N1C1CCCCC1
0.496
CC(C)N1C(=O)[C@@]2(Cc3ccccc31)c1ccccc1C(=O)N(Cc1ccccc1Cl)[C@H]2c1ccc(CO)cc1
-0.272

**Query** # get_value(readout='composite z-score', item= CCCC#C[Si](O[C@H](CC)c1cn(Cc2cccc(Cl)c2)nn1)(C(C)C)C(C)C )
**Result** 0.85
